SYSTEM_TESTED: mAChR M1 (Homo sapiens, UniProt P11229)
Sequence (P11229 whole entry, looked up): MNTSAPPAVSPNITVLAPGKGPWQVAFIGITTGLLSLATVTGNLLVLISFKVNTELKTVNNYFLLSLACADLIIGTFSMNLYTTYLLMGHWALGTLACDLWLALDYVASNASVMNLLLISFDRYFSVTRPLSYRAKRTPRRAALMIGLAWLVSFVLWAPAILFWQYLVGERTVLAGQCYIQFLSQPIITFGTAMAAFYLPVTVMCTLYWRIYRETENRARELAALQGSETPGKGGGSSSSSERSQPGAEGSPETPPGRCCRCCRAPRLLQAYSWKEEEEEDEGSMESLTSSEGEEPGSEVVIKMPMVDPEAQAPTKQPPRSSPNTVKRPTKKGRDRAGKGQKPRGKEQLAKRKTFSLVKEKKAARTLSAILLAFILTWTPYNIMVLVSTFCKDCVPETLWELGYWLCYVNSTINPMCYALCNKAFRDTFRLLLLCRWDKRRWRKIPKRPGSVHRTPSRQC
ASSAY_PROTOCOL: In vitro cellular calcium flux assay, positive allosteric modulation of mAChR M1
Assay type: cell-based
SETUP_CONDITIONS: BHK cells expressing mAChR M1; EC20 carbachol; Examples 76-80 and 82-89 slightly modified procedure
Threshold rule: pEC50 for positive allosteric modulation greater than or equal to 7 is Criterion met; below that, Criterion not met.

>>> group("Cc1cc(Cn2cc(C(=O)N[C@H]3CCCC[C@@H]3O)c3ncccc32)ccn1")
"Criterion not met"
>>> group("O=C(N[C@H]1CCCC[C@@H]1O)c1cn(Cc2ccc(OC(F)(F)F)cc2)c2c(Cl)ccnc12")
"Criterion not met"
>>> group("CN1CCC[C@@H](NC(=O)c2cn(Cc3ccc(-n4cccn4)cc3)c3cccnc23)C1")
"Criterion not met"

Has Cn1cc(-c2ccc(Cn3cc(C(=O)N[C@H]4CCCC[C@@H]4O)c4ncccc43)cc2)cn1 a recorded pEC50 for positive allosteric modulation greater than or equal to 7?
Criterion met
